Target: acetylcholine receptor (Homo sapiens, UniProt P02708)
Sequence (P02708 21-457): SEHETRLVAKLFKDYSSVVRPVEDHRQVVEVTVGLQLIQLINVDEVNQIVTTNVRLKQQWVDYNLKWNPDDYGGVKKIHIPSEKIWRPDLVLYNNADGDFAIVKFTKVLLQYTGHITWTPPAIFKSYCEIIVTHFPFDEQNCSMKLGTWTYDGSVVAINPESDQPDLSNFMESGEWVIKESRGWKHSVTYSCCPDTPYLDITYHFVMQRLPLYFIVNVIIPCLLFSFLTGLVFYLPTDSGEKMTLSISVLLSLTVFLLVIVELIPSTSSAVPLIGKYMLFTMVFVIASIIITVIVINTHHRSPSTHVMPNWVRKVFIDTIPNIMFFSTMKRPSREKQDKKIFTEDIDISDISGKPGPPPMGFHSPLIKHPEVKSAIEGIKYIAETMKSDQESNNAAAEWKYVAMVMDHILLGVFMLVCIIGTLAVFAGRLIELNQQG
Assay: SPR binding affinity (RU) of optimized 5mer/6mer/7mer peptides, Examples 6-7
Conditions: SPR, Resonance Units; peptides tested at 10 μM; 6mer-2 Bottom sequence
Description: Based on the frequencies of occurrence of the top 7 amino acids from Table 7 in Example 5, 600 peptides comprising these amino acids (top combinations) and those comprising the 13 less frequently occurring amino acids (bottom combinations) were synthesized for each series of 5mer, 6mer-1, and 6mer-2. The binding affinity of each sequence for the acetylcholine receptor was measured using Surface Plasmon Resonance (SPR) analysis method. The peptides were tested at a concentration of 10 μM. […]
Some substances, each annotated with its measured Binding affinity.
Numeric only. Scale: Ru

**Query** Consider the substance shown here: 6mer-2-654 (RMPEKR) What is its recorded Binding affinity?
**Result** 20

The origin of these recorded values is patent US20250011363A1.
